Hello, the source for this data is patent US20260274981A1, in case you need it.

biological target: T1, recombinant human TfR (2474-TR, R&D Systems), biotinylated (human, UniProt P02786 89-760, biotinylated with EZ-Link NHS-PEG4-Biotinylation Kit); assay: SPR (Biacore), biotinylated human TfR captured on an SA chip, VHH injected, 1:1 dissociation fit, pH 5.5
T1 construct: Bought protein; also called immobilized recombinant human TfR; biotinylated human TfR
T1 sequence (P02786 89-760 limits assumed): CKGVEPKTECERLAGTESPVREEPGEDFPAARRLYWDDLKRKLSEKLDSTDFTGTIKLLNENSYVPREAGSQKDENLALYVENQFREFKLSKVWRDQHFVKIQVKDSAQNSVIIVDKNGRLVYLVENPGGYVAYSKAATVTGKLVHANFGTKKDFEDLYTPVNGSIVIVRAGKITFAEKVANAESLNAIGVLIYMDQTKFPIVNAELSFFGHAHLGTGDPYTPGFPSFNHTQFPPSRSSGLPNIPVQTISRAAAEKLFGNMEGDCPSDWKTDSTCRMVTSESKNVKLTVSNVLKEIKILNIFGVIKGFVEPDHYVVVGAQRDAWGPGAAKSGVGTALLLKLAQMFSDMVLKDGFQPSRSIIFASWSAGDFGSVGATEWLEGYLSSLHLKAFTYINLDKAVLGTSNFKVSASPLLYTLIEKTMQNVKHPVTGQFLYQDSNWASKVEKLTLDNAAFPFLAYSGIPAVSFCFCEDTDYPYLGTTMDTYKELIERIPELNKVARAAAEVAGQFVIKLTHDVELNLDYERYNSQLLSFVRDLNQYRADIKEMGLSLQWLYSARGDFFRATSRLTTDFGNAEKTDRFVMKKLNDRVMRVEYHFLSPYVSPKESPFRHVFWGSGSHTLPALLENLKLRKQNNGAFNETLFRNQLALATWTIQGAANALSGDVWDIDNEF
quantity.measured: koff (s⁻¹)

>>> readout_number("BBB00737 (VHH, Histidine mutant) VHH: EVQLVESGGGLVQAGGSLRLSCAASHSIFSINAMGWYRQAPGKQRELVAVITSGGSTIYADSVKGRFTISRDNAENTVYLQMNSLRPEDTAVYYCNAHVGLKVPTIQELSLGFGSWGQGTLVTVSS")
0.02
>>> readout_number("BBB00770 (VHH, also called histidine mutant of BBB00533) VHH: EVQLVESGGGLVQAGGSLRLSCAASGSIFSINAMGWYRQAPGKQRELVAVITSGGSTIYADSVKGRFTISRDNAENTVYLQMNSLRPEDTAVYYCNAHVGLKVPTIQELSLGHGSWGQGTLVTVSS")
0.0245
>>> readout_number("BBB00740 (VHH, Histidine mutant) VHH: EVQLVESGGGLVQAGGSLRLSCAASGSIHSINAMGWYRQAPGKQRELVAVITSGGSTIYADSVKGRFTISRDNAENTVYLQMNSLRPEDTAVYYCNAHVGLKVPTIQELSLGFGSWGQGTLVTVSS")
0.0221
